The measurements presented in this section are drawn from the domain aggregation screens of Martell et al. (2025).

# Experimental Details: soluble fraction after stress (log2 fold change); higher = more stays soluble; pooled small domains, quantitative proteomics
# Cond: stress: 50 degC
I would appreciate it if you labelled entries true (1) when soluble fraction (log2) is -0.01 or higher, otherwise false (0).

Consider the worked cases shown below.
INSERT INTO measurements (seq, class_label) VALUES
  ('HMRITEQRRTLAKLFADTPGYLSPKDVYDYMGRFYPGLSFDTVYRNLRLLDELGVLEQVVFEDGVKFK', 'false (0)'),
  ('HMPGLITLEAAKTTALNHAKLTADQVTFVKQKLDRDDGRQVYEIEFYTSDYKEYDYEIDAVSGLILEVDYD', 'false (0)'),
  ('HMPKAKASARNDTRTRLLTIGTEVLSQKGFASTGVEEILSVAGVPKGAFYYYFESKAAFGLAVIENYE', 'true (1)'),
  ('HMPIKYTHKGYTINVSRSKMNGTTFVKVVDPKGQVIQQSQDNRIQDVNQLVTTMKQYIDTLKPS', 'true (1)'),
  ('HMGGLAHPASGEEMEHLFAHLEGELLKSGFLFPPDKAAGMMRNIRAMLTRADFTDQEVRTLRGMIVALSRG', 'false (0)'),
  ('HMREPDPELTASIKSMAESNDQSERLVALAQLSEQRAVDPEVADQILLIALLDEDPIIRGQAVYA', 'true (1)');

Moving on to another sequence below.
Entry HMETINERVNSIIEREGHTVATFAKKIGVPWTTIKNIVSGRNAPSYDIMVKIINAVDWVDANYLVMG : is its soluble fraction (log2) no less than -0.01?
false (0)
